- ASSAY_SUMMARY: XTT cell viability assay, non-cancerous cardiac fibroblasts (CF)
- Assay type: cell-based, rat
- CONDITION: primary cardiac fibroblasts (CF); primary non-cancerous rat cardiac fibroblasts, XTT assay; read-out: CF lethal concentration
READOUT_TYPE: CC50 at 24 h (µM)
Reply numerically in µM, unit not repeated.

Problem: Given the entry CCCCCCCCCCCC(=O)N[C@@H](CCCCN)C(=O)NCCCCCCCCCCCC(=O)N[C@@H](CCCCN)C(=O)NCCCCCCCCCCCC(=O)N[C@@H](CCCCN)C(=O)NCCCCCCCCCCCC(=O)N[C@@H](CCCCN)C(=O)NCCCCCCCCCCCC(=O)N[C@@H](CCCCN)C(N)=O [C12K(NC12K)4NH2] , report its measured CC50 at 24 h.
Result: 37

* * *

- ASSAY_SUMMARY: XTT cell viability assay, non-cancerous cardiac fibroblasts (CF)
- Assay type: cell-based, rat
- CONDITION: rat, primary non-cancerous cardiac fibroblasts (CF), 24 hours incubation, XTT, non-cancerous cells; read-out: Cancer LC50 Rat primary cardiac fibroblast CF
- Protocol: Primary non-cancerous rat cardiac fibroblasts (CF); […] Thereafter, a series of increasing concentrations of the polymers were added. […] The optical density of the cells was measured at 450 nm by ELISA plate reader after 2-4 hours XTT incubation. Cell viability was determined relative to a control having no polymer added thereto. […]
Non-standard residues stand in square brackets, D forms with d. Residues, ends and D or L forms follow the SMILES beside them. *: point of attachment. Lauroyl = CCCCCCCCCCCC(=O)*; 12Ado = NCCCCCCCCCCCC(=O)O
READOUT_TYPE: CC50 at 24 h (µM)
Reply numerically in µM, unit not repeated.

Here are 2 molecules together with their reported answers.
MOLECULE	UNIT_INFO	EXPERIMENTAL_RESULT
CCCCCCCCCCCC(=O)N[C@@H](CCCCN)C(=O)N[C@@H](CCCCN)C(=O)NCCCCCCCCCCCC(=O)N[C@@H](CCCCN)C(=O)N[C@@H](CCCCN)C(=O)NCCCCCCCCCCCC(=O)N[C@@H](CCCCN)C(=O)N[C@@H](CCCCN)C(=O)NCCCCCCCCCCCC(=O)N[C@@H](CCCCN)C(N)=O (Lauroyl-KK[12Ado]KK[12Ado]KK[12Ado]K-NH2)	µM	36
NCCCCCCCCCCCC(=O)N[C@@H](CCCCN)C(=O)NCCCCCCCCCCCC(=O)N[C@@H](CCCCN)C(=O)N[C@@H](CCCCN)C(=O)NCCCCCCCCCCCC(=O)N[C@@H](CCCCN)C(=O)N[C@@H](CCCCN)C(=O)NCCCCCCCCCCCC(=O)N[C@@H](CCCCN)C(N)=O [NC12(KNC12K)3NH2] (H-[12Ado]K[12Ado]KK[12Ado]KK[12Ado]K-NH2)	µM	37

Now let's try a different one.
Problem: Given the entry CCCCCCCCCCCC(=O)N[C@@H](CCCCN)C(=O)N[C@@H](CCCCN)C(=O)NCCCCCCCCCCCC(=O)N[C@@H](CCCCN)C(=O)N[C@@H](CCCCN)C(=O)NCCCCCCCCCCCC(=O)N[C@@H](CCCCN)C(N)=O [C12K(KNC12K)2NH2] (Lauroyl-KK[12Ado]KK[12Ado]K-NH2) , report its measured CC50 at 24 h.
Result: 38
